- assaySummary: collision cross section of unmodified peptide (TIMS, N2, iRT-aligned); higher = larger / more extended gas-phase ion
- testSettings: charge state: 2
Binary call on collision cross section: 1 from 400 Å² upward, 0 beneath that.

Below are worked cases with known answers.
[
  {
    "substance": "HIGFVYHPTK",
    "answerLabel": 0
  },
  {
    "substance": "PRGVISTPVIR",
    "answerLabel": 0
  },
  {
    "substance": "FGYVDFESAEDLEK",
    "answerLabel": 1
  },
  {
    "substance": "THLAPYSDELR",
    "answerLabel": 0
  }
]

Quick check: does `VPGVGLPGVYPGGVLPGAR` have collision cross section greater than or equal to 400 Å²? 1

// inclusive: collision cross section at least 400 Å²? input: `GGSAGGRGFFR` 0

State whether the measured collision cross section reaches 400 Å², counting equality as reaching it, for `ISALQGKLSK` 0

Entry `FRSGNYR` : is its collision cross section no less than 400 Å²? 0

# check: collision cross section of `AYPLADAHLTK` is greater than or equal to 400 Å² 0

Does the substance `LYDIDVAK` have recorded collision cross section that is 400 Å² or more? 0

Determine whether measured collision cross section meets or exceeds 400 Å² for `HHAAYVNNLNVTEEK` 1

Tell me whether collision cross section is at least 400 Å² here: `VDVEVPDVSLEGPEGKLK` 1

Please indicate if the recorded collision cross section for `ASEALLKQLK` meets or exceeds 400 Å². 0

----------
- assaySummary: collision cross section of unmodified peptide (TIMS, N2, iRT-aligned); higher = larger / more extended gas-phase ion
- testSettings: charge state: 3
Decision: collision cross section compared against 500 Å²; not below it gives t, below it gives f.

[
  {
    "entrySequence": "VGTASVLQPVKK",
    "answerLabel": "f"
  }
]

Please indicate if the recorded collision cross section for `LEKTIDDLEEK` meets or exceeds 500 Å². f

Exam item: decide whether the reported collision cross section for `LLALSGPGGGRGR` is at least 500 Å². f

Quick check: does `SYHLQIVTK` have collision cross section greater than or equal to 500 Å²? f

Decide: collision cross section of `PGSPGPPGSPGPR` >= 500 Å²? f

hey, is collision cross section for this one >= 500 Å²? `VGVEVPDVNIEGPEGKLK` t

Does collision cross section meet or surpass 500 Å² for `EEKPAVTAAPK` ? f

Record `LGSPSGKTGTCR` ; criterion: collision cross section no lower than 500 Å². Met? f

Can `VSPASSVDSNIPSSQGYKK` be said to have collision cross section at or above 500 Å²? t

Check this sequence for collision cross section at or above 500 Å²: `VPTTEKPTVTVNFR` t

----------
- assaySummary: collision cross section of modified peptide (TIMS, N2, iRT-aligned); higher = larger / more extended gas-phase ion
- testSettings: charge state: 2; modification: Butyryl
// collision cross section lookup, one value per entry
Reply with just the number (in Å²).

These solved cases illustrate the format of a correct answer.
[
  {
    "entrySequence": "GTISAPGKVVTAAAQAK [_GTISAPGK(Butyryl)VVTAAAQAK_]",
    "value": 447.93
  },
  {
    "entrySequence": "LGVATVAKGVCGACK [_LGVATVAK(Butyryl)GVCGACK_]",
    "value": 418.39
  },
  {
    "entrySequence": "VNALKNLQVK [_VNALK(Butyryl)NLQVK_]",
    "value": 377.18
  }
]

Fill blank: measured collision cross section of the sequence SDSGKPYYYNSQTK [_SDSGK(Butyryl)PYYYNSQTK_] is ____. 426.68

Field request: collision cross section | item: SLKLNTAEDAK [_SLK(Butyryl)LNTAEDAK_] 378.05

Which collision cross section value belongs to SLGEPAAGEGSAKR [_SLGEPAAGEGSAK(Butyryl)R_] ? 388.15

For the sequence ALLQAKASGK [_ALLQAK(Butyryl)ASGK_] , what collision cross section is on record? 352.22

For the sequence shown here, SEASSEFAKK [_SEASSEFAK(Butyryl)K_] , give the reported collision cross section. 356.58

Please report the recorded collision cross section for DAEAAEATAEGALKAEK [_DAEAAEATAEGALK(Butyryl)AEK_] . 461.9

Need collision cross section of SLEEEGAAHSGKR [_SLEEEGAAHSGK(Butyryl)R_] , thanks. 418.69

Bench note: what collision cross section did AAQASDLEKIHLDEK [_AAQASDLEK(Butyryl)IHLDEK_] show? 463.03
